Some compounds, each annotated with its measured IC50.
# system under test: recombinant full length HPK-1 enzyme (Homo sapiens (Human))
# Sequence (Q92918 whole entry, species assumed): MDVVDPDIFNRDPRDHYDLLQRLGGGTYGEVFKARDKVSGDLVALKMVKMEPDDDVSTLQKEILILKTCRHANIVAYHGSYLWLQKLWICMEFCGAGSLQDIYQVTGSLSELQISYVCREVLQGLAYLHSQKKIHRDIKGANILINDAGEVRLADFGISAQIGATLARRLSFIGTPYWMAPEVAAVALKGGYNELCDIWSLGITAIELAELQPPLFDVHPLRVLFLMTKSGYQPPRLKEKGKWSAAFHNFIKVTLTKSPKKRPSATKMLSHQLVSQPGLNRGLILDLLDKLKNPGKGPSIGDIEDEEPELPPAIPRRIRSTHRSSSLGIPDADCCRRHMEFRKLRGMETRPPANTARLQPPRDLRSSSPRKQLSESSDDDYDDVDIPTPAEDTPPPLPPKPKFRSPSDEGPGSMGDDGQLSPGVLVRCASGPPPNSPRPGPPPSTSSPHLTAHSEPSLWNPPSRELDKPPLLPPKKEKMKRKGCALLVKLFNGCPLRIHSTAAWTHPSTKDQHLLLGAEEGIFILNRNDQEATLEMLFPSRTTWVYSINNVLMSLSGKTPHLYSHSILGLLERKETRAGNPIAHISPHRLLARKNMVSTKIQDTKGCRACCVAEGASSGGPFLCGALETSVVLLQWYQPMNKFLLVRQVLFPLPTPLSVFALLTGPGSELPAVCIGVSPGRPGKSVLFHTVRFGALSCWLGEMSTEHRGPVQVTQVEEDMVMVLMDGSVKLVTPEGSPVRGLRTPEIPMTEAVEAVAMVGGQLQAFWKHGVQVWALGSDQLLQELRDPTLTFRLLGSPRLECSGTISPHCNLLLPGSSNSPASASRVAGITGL
# test details: HPK-1 biochemical enzyme assay (ADP-Glo kinase inhibition)
# experimental conditions: recombinant full length HPK-1 6.8 nM, 10 μM ATP, 12.5 μM MBP, 30 mins at 25° C.

Consider the following illustrative entries.
compound | system under test | endpoint result
Cc1ccc(N2CCN(c3ccc(NC(=O)c4c(Nc5cnc6c(c5C)NCCO6)cc[nH]c4=O)cc3)CC2)cn1 [Example 363] | recombinant full length HPK-1 enzyme (Homo sapiens (Human)) | 10 to 100 nM
Cc1c(Nc2cc[nH]c(=O)c2C(=O)Nc2ccc3ncc(O)nc3c2)cnc2c1NCCO2 [Example 273] | recombinant full length HPK-1 enzyme (Homo sapiens (Human)) | 100 to 1000 nM

Prompt: Item Cc1cc(NS(C)(=O)=O)ccc1NC(=O)c1c(Nc2cnc3c(c2C)NCCO3)cc[nH]c1=O [Example 217] has what recorded IC50?
Response: 100 to 1000 nM

Prompt: Item Cc1c(Nc2cc[nH]c(=O)c2C(=O)Nc2ccc(N3CCN(Cc4ccn[nH]4)CC3)cc2)cnc2c1NCCO2 [Example 174] has what recorded IC50?
Response: ≤ 10 nM

Prompt: Item CCC(C)C(=O)N1CCN(c2ccc(NC(=O)c3c(Nc4cnc5c(c4C)NCCO5)cc[nH]c3=O)cc2)CC1 (centres unmarked) [Example 333] has what recorded IC50?
Response: ≤ 10 nM
